System: NCI-H460 lung
method.summary: NCI-60 one-dose screen, 48 h
assay.context: 10 µM unless noted
This is part of a sample that, as a whole, favours compounds with a hit. Of some 83,000 tested, about 20% had one in any assay. Activity calls are given as the source filed them. Rule for the calls: active = growth percent below 10; inactive = the rest.
# valid calls are y for active, n for inactive; nothing else

Ask: Tell me the assay call for O=C(O)c1cccc2c1C(=O)N(c1ccc3c(c1)Cc1ccccc1-3)C2=O please.
Result: n

###

System: MALME-3M melanoma
method.summary: NCI-60 one-dose screen, 48 h (100 = growth as untreated, 0 = no growth, -100 = all killed)
assay.context: 10 µM unless noted
Compounds without any hit were thinned out: in the full panel of roughly 83,000, 20% have a hit. The source made the active and inactive calls. How the source made its calls: active means growth percent below 10; inactive means the rest.
Give growth for every item shown.

Worked set:
| given.smiles | growth |
| --- | --- |
| COc1cc(OC)c2c(c1)c1nc3cc(C)c(C)cc3nc1n2CCN(C)C | 80.9% (inactive) |
| CC(=O)n1c(/C(C#N)=C/c2ccc(N(C)C)cc2)cc2ccccc21 | 57% (inactive) |

Could you now consider this next compound?
Ask: GET /values?readout=growth&item= COc1cc2c3c(c4c5ccccc5[nH]c4c2c(OC)c1OC)C(=O)N(O)C3=O
Result: 78.5% (inactive)

###

System: OVCAR-4 ovarian
method.summary: NCI-60 one-dose screen, 48 h (100 = growth as untreated, 0 = no growth, -100 = all killed)
assay.context: 10 µM unless noted
Experimental: Growth inhibition of the OVCAR-4 human tumor cell line is measured as a screen for anti-cancer activity. Cells are grown in 96 well plates and exposed to the test compound for 48 hours. Compounds are tested at a single concentration, which is 10^-5 M for most compounds. The reported endpoint is percent growth (GI% or GIPRCNT), where numbers from 0 - 100% represent growth inhibition, and numbers from -100% - 0 represent cell death. For example, a value of 40 represents 60% growth inhibition. […]
The panel holds about 83,000 compounds, 20% with a hit somewhere; the sample as a whole holds those more often.
Just a reminder that ties go to -1: only growth strictly below 30% counts as 1.

| compound | classification |
| --- | --- |
| O=C(/C=C\c1ccc2c(c1)OCO2)/C=C/c1ccc2c(c1)OCO2 | -1 |
| CCCCCCCN(CCCCCCC)C(=N)c1ccnc2ccccc12 | 1 |
| NS(=O)(=O)c1ccc(CCNC(=O)/C=C/c2ccc(Cl)cc2)cc1 | -1 |
| Oc1ccc(Nc2ccccc2)cc1 | -1 |
| CCCCCCCC(=O)SCC/C=C/[C@@H]1CC(=O)NCc2cccc(n2)CN(Cc2ccc(Cl)cc2)CC(=O)N[C@@H](C(C)C)C(=O)O1 | 1 |

Ask: Could you please tell me whether growth recorded for O=C1c2ccccc2C(=Cc2ccccc2)c2ccccc21 is less than 30%?
Result: 1

Ask: Quick check: growth of Cc1cc(N=O)cc(C(C)(C)C)c1O under 30%?
Result: -1

Ask: Please indicate whether the reported growth of CC(=O)OC(C)COc1ccc(-c2ccccc2)cc1 (centres undefined) is strictly below 30%.
Result: -1

Ask: Threshold test, growth < 30%: CNC(=O)c1cc(Oc2ccc3nc(NC(=O)Nc4ccc(Cl)cc4)sc3c2)ccn1
Result: 1

###

Provide the reported growth of each item.
Test system: SF-539 CNS
method.summary: NCI-60 one-dose screen, 48 h (100 = growth as untreated, 0 = no growth, -100 = all killed)
assay.context: 10 µM unless noted
Description: Cells are grown in 96 well plates and exposed to the test compound for 48 hours. Compounds are tested at a single concentration, which is 10^-5 M for most compounds. The reported endpoint is percent growth (GI% or GIPRCNT), where numbers from 0 - 100% represent growth inhibition, and numbers from -100% - 0 represent cell death. For example, a value of 40 represents 60% growth inhibition. A value of 0 means no net growth occurred over the course of the experiment. […]
About 83,000 compounds went through this panel and 20% of them were active in at least one assay; those are over-represented in the sample as a whole. Active and inactive are the calls of the source. How the source made its calls: active means growth percent below 10; inactive means the rest.

| given.smiles | growth |
| --- | --- |
| COc1cccc(-c2nn(-c3ccccc3)cc2-c2ccnc(NCCNS(=O)(=O)c3ccc(C(F)(F)F)cc3)c2)c1 | 2.91% (active) |

Take each entry in turn and give its growth.
1. N#Cc1cnc2cc(OC[C@@H](O)CO)c(NC(=O)C3CCCC3)cc2c1Nc1ccc(OCc2cccc(F)c2)c(Cl)c1
2. Clc1ccc2c(NCCNc3nc(-c4ccccc4)cc(-c4ccccc4)n3)ccnc2c1
3. COc1cc2c(cc1-c1c(C)noc1C)ncc1nc(C3CC3)n([C@H](C)COC(F)F)c12
4. COc1cccc(-c2nn(-c3ccccc3)cc2-c2ccnc(NCCNS(=O)(=O)c3ccccc3)c2)c1
5. CC1(C)NCCC[C@]2(C)[C@H]3CC[C@@H]4[C@H]5[C@H](C(=O)/C=C/c6ccccn6)CC[C@]5(CO)CC[C@@]4(C)[C@]3(C)CC[C@@H]12

Result:
["-32.5% (active)", "-81.1% (active)", "39.4% (inactive)", "57.1% (inactive)", "86.1% (inactive)"]

###

Tested on: 786-0 renal
method.summary: NCI-60 one-dose screen, 48 h
assay.context: 10 µM unless noted
The panel holds about 83,000 compounds, 20% with a hit somewhere; the sample as a whole holds those more often. Activity calls are given as the source filed them. How the source made its calls: active means growth percent below 10; inactive means the rest.
I would appreciate it if you answered using one of these outcomes: active, inactive

| compound | classification |
| --- | --- |
| CC1(C)NCCC[C@]2(C)[C@H]3CC[C@@H]4[C@H]5[C@H](C(=O)/C=C/c6ccccn6)CC[C@]5(CO)CC[C@@]4(C)[C@]3(C)CC[C@@H]12 | inactive |
| C#Cc1cccc(NC(=O)C2CCCN(C(=O)CCl)C2)c1 (stereo not given) | inactive |
| COC(=O)c1cc(=O)nc(N/N=C/c2ccc(C)cc2)s1 | inactive |
| COc1ccc(-n2c(/C=C/c3ccc(O)c(OC)c3)cc(/C=C/c3ccc(O)c(OC)c3)nc2=O)cc1 | inactive |
| C[C@@H](C(=O)O)c1ccc2c3cc(Cl)ccc3n(Cc3cc(=O)oc4ccc(Cl)cc34)c2c1 | inactive |

Ask: For c1csc(-c2nc(-c3cc4ccccc4c(N4CCOCC4)n3)cs2)c1 , what call appears in the results of this test?
Result: inactive

Ask: Any idea what this test logged for N#C/C(=C\c1ccc(-c2ccccc2)o1)c1nc(-c2ccco2)cs1 ?
Result: inactive

Ask: State the result this test recorded for c1ccc(C2Cc3ccccc3C2=NC2CCCCC2)cc1 (stereo not given) .
Result: inactive

Ask: Kindly provide the recorded test outcome for the following compound: COc1ccc(-c2nc(SCC(=O)Nc3ccc(C(C)=O)cc3)[nH]c(=O)c2C#N)cc1
Result: inactive

Ask: Please state the recorded outcome for this compound: Cc1cc2nc3c4cc(O)ccc4n(CCN(C)C)c3nc2cc1C
Result: active

###

System: TK-10 renal
method.summary: NCI-60 one-dose screen, 48 h (100 = growth as untreated, 0 = no growth, -100 = all killed)
assay.context: 10 µM unless noted
About 83,000 compounds went through this panel and 20% of them were active in at least one assay; those are over-represented in the sample as a whole.
Mark MET only for growth values smaller than 80%; exact matches and larger values are NOT MET.

These recorded examples may help you get a feel for the data.
| molecule | classification |
| --- | --- |
| Nc1c(C(=O)Nc2c(Cl)cccc2Cl)sc2nc3c(cc12)C(=O)CCC3 | MET |
| N#C/C(=C\c1ccc(-c2ccccc2)o1)c1nc(-c2ccco2)cs1 | MET |
| NCCn1cc(-c2nc(-c3c[nH]c4ncccc34)cs2)c2cc(F)ccc21 | NOT MET |
| CC(=O)NC1=C(C#N)C(c2ccccc2Cl)c2c(ccc3ccccc23)O1 (stereo not drawn) | NOT MET |
| CCCCCCCN(CCCCCCC)C(=N)c1ccnc2ccccc12 | MET |

Ask: Check if growth falls below 80% for Cn1cc(-c2csc(-c3c[nH]c4ccc(F)cc34)n2)c2cccnc21 .
Result: MET

Ask: # strict comparison: is reported growth < 80%? input = COc1ccc(NC(=O)c2ccoc2COc2ccccc2)cc1
Result: NOT MET

###

Record form. Attribute: growth. Fill in for each entry.
System: OVCAR-5 ovarian
method.summary: NCI-60 one-dose screen, 48 h (100 = growth as untreated, 0 = no growth, -100 = all killed)
assay.context: 10 µM unless noted
About 83,000 compounds went through this panel and 20% of them were active in at least one assay; those are over-represented in the sample as a whole. The source made the active and inactive calls. Rule for the calls: active = growth percent below 10; inactive = the rest.

| given.smiles | value.measured |
| --- | --- |
| O=C(/C=C/c1cccc2ccccc12)Nc1ncc(Cc2ccccc2)s1 | 22.7% (inactive) |
| C[C@@H](Oc1ccc(C(=O)NS(=O)(=O)C(C)(C)C)cc1C(F)(F)F)c1ccc(Oc2ccccc2)cn1 | 86.5% (inactive) |
| Cc1cc2nc3c4cc(Cl)ccc4n(CCN(C)C)c3nc2cc1C | 21.8% (inactive) |
| C=C1C(=O)O[C@H]2[C@H]1CC/C(COC(=O)NCc1c[nH]c3ccccc13)=C\CC[C@@]1(C)O[C@@H]21 | 86.1% (inactive) |
| N=c1c(S(=O)(=O)c2ccccc2)cc2c(=O)n3ccccc3nc2n1C1CCCC1 | 103% (inactive) |

Now let's try a different one.
Ask: Would you mind telling me what growth value was observed for CN1CCN(CC#CCn2c3c(c4ccccc42)C[C@]2(C)[C@H]4CC[C@@H]5[C@H]6[C@H]7OC(=O)[C@@]6(CCC7(C)C)CC[C@@]5(C)[C@]4(C)CC[C@H]2C3(C)C)CC1 ?
Result: 112% (inactive)

Hey, just so you know, these numbers are from PubChem BioAssay (NCI).
